# reported % binding (parent = 100); entries follow
Molecular target: T1, human C5 (human, UniProt P01031 19-673; P01031 678-1676, Beta and alpha chains are disulfide-linked and the protein is glycosylated.)
T1 construct: Either in-house recombinant C5 or plasma derived C5 (CALBIOCHEM) was used; also called recombinant human C5; plasma derived human C5
Test: Biacore, captured antibody, pH 7.4, 37 C;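 also: biacore binding response of anti-C5 antibody light chain variants captured on chip with human C5 injected, ACES running buffer containing 1.2 mM CaCl₂, parent light chain antibody set to 100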

Binder	% binding (parent = 100), %
CFP0017 17L 30S (antibody, V domains shown) VH: QVQLVQSGAEVKKPGSSVKVSCKASGGTFSSYAISWVRQAPGQGLEWMGGIIPIFGTANYAQKFQGRVTITADESTSTAYMELSSLRSEDTAVYYCARGGWWGGALDYWGQGTLVTVSS VL: DIQMTQSPSSLSASVGDRVTITCRASQSISDDLAWYQQKPGKAPKLLIYHASSLQSGVPSRFSGSGSGTDFTLTISSLQPEDFATYYCQQSDSYPLTFGQGTKVEIK	79.1
CFP0018 18L 92D (antibody, V domains shown) VH: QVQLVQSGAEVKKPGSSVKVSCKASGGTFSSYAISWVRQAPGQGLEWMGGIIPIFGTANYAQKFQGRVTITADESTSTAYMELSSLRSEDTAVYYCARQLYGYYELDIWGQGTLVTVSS VL: DIQMTQSPSSLSASVGDRVTITCRASQSISDDLAWYQQKPGKAPKLLIYEASSLQSGVPSRFSGSGSGTDFTLTISSLQPEDFATYYCQQYDSYPLTFGQGTKVEIK	31.7
CFP0011 11L 91Y (antibody, V domains shown) VH: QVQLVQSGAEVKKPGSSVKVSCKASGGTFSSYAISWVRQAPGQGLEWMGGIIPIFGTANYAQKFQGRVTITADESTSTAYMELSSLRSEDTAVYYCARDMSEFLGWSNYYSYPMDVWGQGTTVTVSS VL: DIQMTQSPSSLSASVGDRVTITCRASQSIEDDLAWYQQKPGKAPKLLIYHASSLQSGVPSRFSGSGSGTDFTLTISSLQPEDFATYYCQQYDNSPYTFGQGTKVEIK	56
